The reported measurements were obtained from patent US8158628B2.

Molecular target: B1R of the rat (Rattus norvegicus, UniProt P97583)
Construct: expressed in transfected cells; host or cells: CHO K1 cells (Chinese hamster ovary), stably transfected
Sequence (P97583 whole entry): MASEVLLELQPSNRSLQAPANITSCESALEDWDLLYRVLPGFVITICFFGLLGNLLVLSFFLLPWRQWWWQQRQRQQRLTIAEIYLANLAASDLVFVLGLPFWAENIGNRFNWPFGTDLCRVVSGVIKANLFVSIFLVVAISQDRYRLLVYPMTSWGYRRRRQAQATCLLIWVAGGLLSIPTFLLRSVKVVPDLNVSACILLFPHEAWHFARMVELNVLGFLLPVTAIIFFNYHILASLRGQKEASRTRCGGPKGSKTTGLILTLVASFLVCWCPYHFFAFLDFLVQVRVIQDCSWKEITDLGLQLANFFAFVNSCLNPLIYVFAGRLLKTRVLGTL
Test: FLIPR Ca2+ functional assay, B1R antagonism, rat B1R in CHO K1 cells
Type: cell-based
Conditions: test substance 10 μM; rB1R CHO K1 cells; agonist Des-Arg9 bradykinin at EC80; % of maximum achievable inhibition
metric: inhibition at 10 µM

{"compound": "COc1ccc2cc(S(=O)(=O)N3CCn4cccc4C3CC(=O)NC3CCCc4cc(CN5CCN(C)CC5)ccc43)ccc2c1 (stereo not drawn) [Example 117]", "metric": "inhibition at 10 µM", "result-value": "98.8%"}
{"compound": "Cc1cccc(Cl)c1S(=O)(=O)N1CCn2cccc2C1CC(=O)N1CCN(CCO)CC1 (stereo not drawn) [Example 263]", "metric": "inhibition at 10 µM", "result-value": "2.37%"}
{"compound": "O=C(CC1c2cccn2CCN1S(=O)(=O)c1ccccc1)N1CCN(c2ccccc2)CC1 (stereo not drawn) [Example 174]", "metric": "inhibition at 10 µM", "result-value": "28%"}
{"compound": "COc1ccc(CN2CCN(C(=O)CC3c4cccn4CCN3S(=O)(=O)c3c(C)cc(OC)cc3C)CC2)cc1 (stereo not drawn) [Example 242]", "metric": "inhibition at 10 µM", "result-value": "8.4%"}
{"compound": "CN(C)c1ccc(C2CCCN2C(=O)CC2c3cccn3CCN2S(=O)(=O)c2ccc(C(F)(F)F)cc2Cl)cc1 (stereo not drawn) [Example 270]", "metric": "inhibition at 10 µM", "result-value": "3.1%"}
{"compound": "Cc1ccc(S(=O)(=O)N2CCn3cccc3C2CC(=O)NC2CCCc3cc(CN4C5CCCC4CC5)ccc32)cc1Cl (stereo not drawn) [Example 110]", "metric": "inhibition at 10 µM", "result-value": "98.8%"}
{"compound": "Cc1cc(C)c(CN2CCN(C(=O)CC3c4cccn4CCN3S(=O)(=O)c3cccc(C(F)(F)F)c3)CC2)c(C)c1 (stereo not drawn) [Example 236]", "metric": "inhibition at 10 µM", "result-value": "9.23%"}
{"compound": "Cc1cccc(Cl)c1S(=O)(=O)N1CCn2cccc2C1CC(=O)N1CCN(c2ncccc2C#N)CC1 (stereo not drawn) [Example 261]", "metric": "inhibition at 10 µM", "result-value": "29.8%"}
{"compound": "COc1ccc2cc(S(=O)(=O)N3CCn4cccc4C3CC(=O)NC3CCc4cc(CN5CCCc6ccccc65)ccc4C3)ccc2c1 (stereo not drawn) [Example 105]", "metric": "inhibition at 10 µM", "result-value": "103%"}
{"compound": "COc1ccc2cc(S(=O)(=O)N3CCn4cccc4C3CC(=O)NC3CCCc4cc(CN5CCCCC5)ccc43)ccc2c1 (stereo not drawn) [Example 128]", "metric": "inhibition at 10 µM", "result-value": "103%"}
{"compound": "COc1cc(C)c(S(=O)(=O)N2CCn3cccc3C2CC(=O)N2CCC3(CCN(C4CC4)C3)C2)c(C)c1 (stereo not drawn) [Example 3]", "metric": "inhibition at 10 µM", "result-value": "58.8%"}
{"compound": "Cc1ccc(S(=O)(=O)N2CCn3cccc3C2CC(=O)NC2CCCc3cc(CN(C)C)ccc32)cc1Cl (stereo not drawn) [Example 102]", "metric": "inhibition at 10 µM", "result-value": "101%"}
{"compound": "O=C(CC1c2cccn2CCN1S(=O)(=O)c1ccc(C(F)(F)F)cc1Cl)N1CCc2ccccc2C1 (stereo not drawn) [Example 20]", "metric": "inhibition at 10 µM", "result-value": "30.7%"}
{"compound": "Cc1ccc(S(=O)(=O)N2CCn3cccc3C2CC(=O)N[C@@H]2CCCc3cc(CNCC(F)(F)F)ccc32)cc1 (stereo partly drawn) [Example 45]", "metric": "inhibition at 10 µM", "result-value": "64%"}
{"compound": "CCN1CCN(C(=O)CC2c3cccn3CCN2S(=O)(=O)c2cccc(C(F)(F)F)c2)CC1 (stereo not drawn) [Example 187]", "metric": "inhibition at 10 µM", "result-value": "18.3%"}

----------
Target: human B1R (Homo sapiens, UniProt P46663)
Construct: expressed in transfected cells; host or cells: CHO K1 cells (Chinese hamster ovary), stably transfected
Sequence (P46663 whole entry): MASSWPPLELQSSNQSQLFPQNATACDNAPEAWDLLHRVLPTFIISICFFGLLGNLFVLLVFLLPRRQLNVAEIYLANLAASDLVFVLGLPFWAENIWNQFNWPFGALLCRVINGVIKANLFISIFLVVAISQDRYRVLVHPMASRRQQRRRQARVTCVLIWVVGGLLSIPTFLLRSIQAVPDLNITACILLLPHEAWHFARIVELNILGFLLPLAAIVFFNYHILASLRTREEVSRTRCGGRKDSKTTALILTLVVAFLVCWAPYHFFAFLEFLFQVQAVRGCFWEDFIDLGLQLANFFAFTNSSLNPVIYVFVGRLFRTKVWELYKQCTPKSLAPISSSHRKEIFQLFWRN
Assay: FLIPR Ca2+ functional assay, B1R antagonism, human B1R in CHO K1 cells
Format: cell-based
Conditions: test substance 10 μM; hB1R CHO K1 cells; agonist Lys-Des-Arg9 bradykinin at EC80; % of maximum achievable inhibition
Quick list: inhibition at 10 µM per entry.
metric: inhibition at 10 µM (%)

{"molecule": "CNCc1ccc2c(c1)CCCC2NC(=O)CC1c2cccn2CCN1S(=O)(=O)c1ccc(C)c(Cl)c1 (stereo not shown) [Example 136]", "metric": "inhibition at 10 µM", "result-value": 99.7}
{"molecule": "Cc1ccc(S(=O)(=O)N2CCn3cccc3C2CC(=O)NC2CCCc3cc(CN4CCCCC4)ccc32)cc1 (stereo not shown) [Example 80]", "metric": "inhibition at 10 µM", "result-value": 99.8}
{"molecule": "CCC(C)NCc1ccc2c(c1)CCC(NC(=O)CC1c3cccn3CCN1S(=O)(=O)c1ccc(C)c(Cl)c1)C2 (stereo not shown) [Example 63]", "metric": "inhibition at 10 µM", "result-value": 99.7}
{"molecule": "Cc1ccc(S(=O)(=O)N2CCn3cccc3C2CC(=O)N[C@@H]2CCCc3cc(CNCC(F)(F)F)ccc32)cc1 (stereo partly shown) [Example 45]", "metric": "inhibition at 10 µM", "result-value": 50.6}
{"molecule": "COc1cc(C)c(S(=O)(=O)N2CCn3cccc3C2CC(=O)N2CCN(C3CCN(C)CC3)CC2)c(C)c1 (stereo not shown) [Example 1]", "metric": "inhibition at 10 µM", "result-value": 94.8}
{"molecule": "CCC(C)NCc1ccc2c(c1)CCC(NC(=O)CC1c3cccn3CCN1S(=O)(=O)c1cccc(C(F)(F)F)c1)C2 (stereo not shown) [Example 65]", "metric": "inhibition at 10 µM", "result-value": 99.1}
{"molecule": "COc1ccc2cc(S(=O)(=O)N3CCn4cccc4C3CC(=O)NC3CCc4cc(CNCc5ccccc5)ccc4C3)ccc2c1 (stereo not shown) [Example 101]", "metric": "inhibition at 10 µM", "result-value": 99.9}

----------
Quick list: inhibition at 10 µM per entry.
Target: B1R of the rat (Rattus norvegicus, UniProt P97583)
Construct: expressed in transfected cells; host or cells: CHO K1 cells (Chinese hamster ovary), stably transfected
Assay: FLIPR Ca2+ functional assay, B1R antagonism, rat B1R in CHO K1 cells
Format: cell-based
Conditions: test substance 10 μM; rB1R CHO K1 cells; agonist Des-Arg9 bradykinin at EC80; % of maximum achievable inhibition
metric: inhibition at 10 µM (%)

{"compound": "CCC(C)NCc1ccc2c(c1)CCCC2NC(=O)CC1c2cccn2CCN1S(=O)(=O)c1ccc(C)cc1 (stereo not shown)", "result-value": 102}
{"compound": "COc1ccc2cc(S(=O)(=O)N3CCn4cccc4C3CC(=O)NC3CCc4cc(CN5C6CCCC5CC6)ccc4C3)ccc2c1 (stereo not shown)", "result-value": 102}
{"compound": "Cc1ccc(S(=O)(=O)N2CCn3cccc3C2CC(=O)NC2CCCc3cc(CN4CCCc5ccccc54)ccc32)cc1Cl (stereo not shown)", "result-value": 62.2}
{"compound": "Cc1ccc(S(=O)(=O)N2CCn3cccc3C2CC(=O)NC2CCCc3cc(CN4CCCC4)ccc32)cc1 (stereo not shown)", "result-value": 101}
